Biological target: UniProtKB P12527
Sequence (P12527 whole entry): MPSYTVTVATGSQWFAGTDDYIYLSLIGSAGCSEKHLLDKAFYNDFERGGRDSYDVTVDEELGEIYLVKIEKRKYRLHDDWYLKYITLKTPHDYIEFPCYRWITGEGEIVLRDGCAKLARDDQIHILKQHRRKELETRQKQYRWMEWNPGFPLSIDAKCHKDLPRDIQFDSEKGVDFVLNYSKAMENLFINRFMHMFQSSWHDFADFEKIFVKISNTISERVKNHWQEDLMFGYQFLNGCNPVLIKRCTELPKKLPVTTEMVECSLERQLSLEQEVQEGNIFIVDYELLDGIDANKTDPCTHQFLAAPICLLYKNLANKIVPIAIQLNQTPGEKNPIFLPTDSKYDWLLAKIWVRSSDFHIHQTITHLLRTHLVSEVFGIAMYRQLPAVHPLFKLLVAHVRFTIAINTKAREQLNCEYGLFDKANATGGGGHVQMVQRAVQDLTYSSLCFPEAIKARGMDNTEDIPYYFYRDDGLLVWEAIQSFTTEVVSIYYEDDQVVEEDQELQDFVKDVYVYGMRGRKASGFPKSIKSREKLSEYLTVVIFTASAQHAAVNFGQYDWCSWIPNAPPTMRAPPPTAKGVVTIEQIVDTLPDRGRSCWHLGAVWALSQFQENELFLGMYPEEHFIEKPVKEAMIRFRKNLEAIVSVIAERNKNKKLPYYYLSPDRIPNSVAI
Assay: Ability to inhibit 5-lipoxygenase in rat basophilic leukemia cells.
Experimental readout: IC50 (µM)

>>> df
                               given_smiles  recorded_result
0  CCCCCCCCCCCCOc1cc(O)c2c(=O)cc(-c3ccc(O)c(O)c3)oc2c1OC             0.18
1  CCCCCCCCCCCCCCCCCCOc1c(OC)cc2oc(-c3ccc(OC(C)=O)c(OC(C)=O)c3)cc(=O)c2c1OC               10
2  CCCCCCCCCCCCOc1c(OC)cc2oc(-c3ccc(O)c(O)c3)cc(=O)c2c1OC             0.03
3  CCCCOc1c(OC)cc2oc(-c3ccc(O)c(O)c3)cc(=O)c2c1O            0.015
4  CCCCCCOc1c(OC)cc2oc(-c3ccc(O)c(O)c3)cc(=O)c2c1OC            0.014

A. CCCCCCCCCCOc1c(OC)cc2oc(-c3ccc(O)c(O)c3)cc(=O)c2c1O
B. CCCCCCCCCCCCCCCCOc1c(OC)cc2oc(-c3ccc(O)c(O)c3)cc(=O)c2c1O
Dear colleague, could you let me know whether A or B has the lower recorded IC50? Thanks. Select an item and report its label.
A

The reported measurements were obtained from ChEMBL document CHEMBL1123544.
